assay: Binding affinity to 5'-FAM/3'-TAMARA labelled c-KIT1 G-quadruplex DNA (unknown origin) assessed as change in melting temperature at 2 uM by FRET assay
Binary classification by ΔTm, with 10 °C as an inclusive lower bound for met; all other cases are not met.

>>> cat("COc1cc2c(cc1OC)-c1nc3ccccc3c(NCCN3CCCC3)c1CC2")
"met"
>>> cat("COc1cc2c(cc1OC)-c1nc3ccccc3c(NCCCN(C)C)c1CC2")
"met"
>>> cat("COc1cc2c(cc1OC)-c1nc3ccccc3c(C(=O)NCCN3CCCC3)c1CC2")
"not met"
>>> cat("COc1cc2c(cc1OC)-c1nc3ccccc3c(NCCN(C)C)c1CC2")
"met"
>>> cat("CCN(CC)CCCNC(=O)c1c2c(nc3ccccc13)-c1cc(OC)c(OC)cc1CC2")
"not met"
>>> cat("CCN(CC)CCCNc1c2c([n+](C)c3ccccc13)-c1cc(OC)c(OC)cc1CC2")
"met"
>>> cat("COc1cc2c(cc1OC)-c1nc3ccccc3c(NCCCN3CCCCC3)c1CC2")
"met"
>>> cat("COc1cc2c(cc1OC)-c1c(c(NCCN(C)C)c3ccccc3[n+]1C)CC2")
"not met"
>>> cat("COc1cc2c(cc1OC)-c1nc3ccccc3c(NCCN3CCCCC3)c1CC2")
"not met"
>>> cat("COc1cc2c(cc1OC)-c1nc3ccccc3c(NCCCN3CCCC3)c1CC2")
"met"
>>> cat("COc1cc2c(cc1OC)-c1nc3ccccc3c(Cl)c1CC2")
"not met"

----------
assay: Binding affinity to 5'-FAM/3'-TAMARA labelled c-KIT1 G-quadruplex DNA (unknown origin) assessed as change in melting temperature at 1 uM by FRET assay
Measured Endpoint: ΔTm (°C)

>>> experimental_result("COc1cc2c(cc1OC)-c1nc3ccccc3c(NCCCN(C)C)c1CC2")
12.3
>>> experimental_result("CCN(CC)CCNc1c2c(nc3ccccc13)-c1cc(OC)c(OC)cc1CC2")
9.8
>>> experimental_result("COc1cc2c(cc1OC)-c1nc3ccccc3c(NCCN3CCCCC3)c1CC2")
4.7
>>> experimental_result("COc1cc2c(cc1OC)-c1c(cc3c(OCCCN4CCCCC4)c(OC)ccc3[n+]1C)CC2")
4.4
>>> experimental_result("COc1cc2c(cc1OC)-c1nc3ccccc3c(C(=O)NCCCN3CCCCC3)c1CC2")
3.3
>>> experimental_result("COc1cc2c(cc1OC)-c1nc3ccccc3c(NCCCN3CCCC3)c1CC2")
10.8
>>> experimental_result("COc1cc2c(cc1OC)-c1nc3ccccc3c(NCCCN3CCCCC3)c1CC2")
11.6
>>> experimental_result("COc1cc2c(cc1OC)-c1c(c(NCCCN3CCCC3)c3ccccc3[n+]1C)CC2")
10.7
>>> experimental_result("CCN(CC)CCCNc1c2c(nc3ccccc13)-c1cc(OC)c(OC)cc1CC2")
11.9
>>> experimental_result("COc1cc2c(cc1OC)-c1c(c(NCCN3CCCC3)c3ccccc3[n+]1C)CC2")
7.7
>>> experimental_result("COc1cc2c(cc1OC)-c1nc3ccccc3c(NCCN3CCN(C)CC3)c1CC2")
17.4

----------
test: Binding affinity to 5'-FAM/3'-TAMARA labelled c-KIT1 G-quadruplex DNA (unknown origin) assessed as change in melting temperature at 2 uM by FRET assay
ΔTm overview
Measured Endpoint: ΔTm (°C)

>>> experimental_result("COc1cc2c(cc1OC)-c1nc3ccccc3c(C(=O)NCCCN3CCCCC3)c1CC2")
5.2
>>> experimental_result("CCN(CC)CCNc1c2c(nc3ccccc13)-c1cc(OC)c(OC)cc1CC2")
15.7
>>> experimental_result("COc1cc2c(cc1OC)-c1c(c(NCCCN(C)C)c3ccccc3[n+]1C)CC2")
10.7
>>> experimental_result("COc1cc2c(cc1OC)-c1nc3ccccc3c(NCCN3CCN(C)CC3)c1CC2")
22.6
>>> experimental_result("COc1cc2c(cc1OC)-c1c(c(NCCN3CCCC3)c3ccccc3[n+]1C)CC2")
11.3
>>> experimental_result("COc1cc2c(cc1OC)-c1c(cc3c(OCCCN4CCCCC4)c(OC)ccc3[n+]1C)CC2")
12.2
>>> experimental_result("COc1cc2c(cc1OC)-c1nc3ccccc3c(NCCCN3CCN(C)CC3)c1CC2")
22.9
>>> experimental_result("CCN(CC)CCNc1c2c([n+](C)c3ccccc13)-c1cc(OC)c(OC)cc1CC2")
10.3
>>> experimental_result("CCN(CC)CCCNc1c2c(nc3ccccc13)-c1cc(OC)c(OC)cc1CC2")
15.9
>>> experimental_result("COc1cc2c(cc1OC)-c1c(c(NCCCN3CCCC3)c3ccccc3[n+]1C)CC2")
14

----------
test: Binding affinity to biotinylated c-KIT1 G-quadruplex DNA (unknown origin) by SPR assay
pKd: −log10 of the molar value.
Measured Endpoint: pKd

>>> experimental_result("COc1cc2c(cc1OC)-c1nc3ccccc3c(NCCCN3CCCCC3)c1CC2")
5.41
>>> experimental_result("COc1cc2c(cc1OC)-c1nc3ccccc3c(NCCN3CCN(C)CC3)c1CC2")
5.48
>>> experimental_result("COc1cc2c(cc1OC)-c1nc3ccccc3c(C(=O)NCCCN3CCCCC3)c1CC2")
5.43
>>> experimental_result("COc1cc2c(cc1OC)-c1c(c(NCCN(C)C)c3ccccc3[n+]1C)CC2")
5.10
>>> experimental_result("COc1cc2c(cc1OC)-c1c(c(NCCN3CCCC3)c3ccccc3[n+]1C)CC2")
5.66
>>> experimental_result("COc1cc2c(cc1OC)-c1nc3ccccc3c(NCCCN(C)C)c1CC2")
5.46
>>> experimental_result("CCN(CC)CCCNC(=O)c1c2c(nc3ccccc13)-c1cc(OC)c(OC)cc1CC2")
5.55
>>> experimental_result("COc1cc2c(cc1OC)-c1c(c(NCCCN3CCCC3)c3ccccc3[n+]1C)CC2")
5.48

----------
Selectivity ratio overview
experiment: Selectivity ratio of Kd for biotinylated duplex DNA (unknown origin) to Kd for biotinylated c-KIT1 G-quadruplex DNA (unknown origin)
Measured Endpoint: Selectivity ratio

>>> experimental_result("COc1cc2c(cc1OC)-c1c(c(NCCCN(C)C)c3ccccc3[n+]1C)CC2")
"> 3.4"
>>> experimental_result("COc1cc2c(cc1OC)-c1nc3ccccc3c(NCCCN3CCCCC3)c1CC2")
"> 5.1"
>>> experimental_result("COc1cc2c(cc1OC)-c1nc3ccccc3c(C(=O)NCCCN3CCCCC3)c1CC2")
"> 5.4"
>>> experimental_result("COc1cc2c(cc1OC)-c1c(c(NCCN(C)C)c3ccccc3[n+]1C)CC2")
"> 2.5"
>>> experimental_result("COc1cc2c(cc1OC)-c1nc3ccccc3c(NCCN3CCN(C)CC3)c1CC2")
5.2
>>> experimental_result("CCN(CC)CCCNc1c2c(nc3ccccc13)-c1cc(OC)c(OC)cc1CC2")
"> 4.3"
>>> experimental_result("COc1cc2c(cc1OC)-c1nc3ccccc3c(NCCN(C)C)c1CC2")
2.2
>>> experimental_result("COc1cc2c(cc1OC)-c1nc3ccccc3c(NCCCN3CCCC3)c1CC2")
"> 6.9"
>>> experimental_result("COc1cc2c(cc1OC)-c1nc3ccccc3c(NCCN3CCCC3)c1CC2")
3.1
>>> experimental_result("COc1cc2c(cc1OC)-c1nc3ccccc3c(NCCCN3CCN(C)CC3)c1CC2")
"> 7.1"
>>> experimental_result("CCN(CC)CCCNC(=O)c1c2c(nc3ccccc13)-c1cc(OC)c(OC)cc1CC2")
"> 7.1"
>>> experimental_result("COc1cc2c(cc1OC)-c1c(c(NCCCN3CCCC3)c3ccccc3[n+]1C)CC2")
"> 6.1"
>>> experimental_result("COc1cc2c(cc1OC)-c1nc3ccccc3c(NCCN3CCCCC3)c1CC2")
"> 2.6"
>>> experimental_result("CCN(CC)CCCNc1c2c([n+](C)c3ccccc13)-c1cc(OC)c(OC)cc1CC2")
"> 2.7"
>>> experimental_result("COc1cc2c(cc1OC)-c1nc3ccccc3c(NCCCN(C)C)c1CC2")
"> 5.7"
>>> experimental_result("CCN(CC)CCNc1c2c([n+](C)c3ccccc13)-c1cc(OC)c(OC)cc1CC2")
"> 5.1"
>>> experimental_result("COc1cc2c(cc1OC)-c1c(cc3c(OCCCN4CCCCC4)c(OC)ccc3[n+]1C)CC2")
"> 7.1"
>>> experimental_result("COc1cc2c(cc1OC)-c1c(c(NCCN3CCCC3)c3ccccc3[n+]1C)CC2")
"> 9.1"
>>> experimental_result("CCN(CC)CCNc1c2c(nc3ccccc13)-c1cc(OC)c(OC)cc1CC2")
2.2
